Cited source for all entries: ChEMBL document CHEMBL1127135

measurement description: Evaluated for pharmacokinetic parameter urine recovery in mouse at the dose 20 mg/kg (0-24 hr)
Assay type: ADME, organism-based
Parameters: dose 20 mg/kg
measurement setup: read-out: UR
endpoint: dose excreted (%)
Write it as a number; the unit % goes unstated.

Name the recorded dose excreted for Nc1nc(/C(=N/O)C(=O)NC2C(=O)N3C(C(=O)O)=C(/C=C\c4csnn4)CSC23)cs1 (stereo unspecified) . 1.9

====

measurement description: Evaluated for pharmacokinetic parameter tmax in mouse at the dose 20 mg/kg was determined
Format: ADME, organism-based
Parameters: dose 20 mg/kg
measurement setup: in vivo
endpoint: Tmax (h)
Field: numeric (h). Do not append units.

Reported Tmax for Nc1nc(/C(=N/O)C(=O)NC2C(=O)N3C(C(=O)O)=C(/C=C\c4csnn4)CSC23)cs1 (stereo unspecified) : what is it? 2

====

measurement description: Evaluated for pharmacokinetic parameter area under curve in rabbit at the dose 20 mg/kg ( 0-4 hr )
Assay type: ADME, organism-based, Oryctolagus cuniculus
Parameters: time < 4 hr, dose 20 mg/kg
measurement setup: in vivo
endpoint: AUC at 4 h (ng·h/mL)
Provide only the numeric value, understood in ng·h/mL.

Name the recorded AUC at 4 h for CC(C)(C)C(=O)OCOC(=O)C1=C(/C=C\c2csnn2)CSC2C(NC(=O)/C(=N\O)c3csc(N)n3)C(=O)N12 (stereo unspecified) . 10500

====

Tested on: Enterobacter cloacae
measurement description: Antibacterial activity against Enterobacter cloacae 963 was determined
Type: functional
endpoint: MIC (mg/L)
Write it as a number; the unit mg/L goes unstated.

The examples below pair each entry with its known result.
| compound | measured on | unit string | MIC |
| --- | --- | --- | --- |
| C=CC1=C(C(=O)O)N2C(=O)[C@@H](NC(=O)/C(=N\O)c3csc(N)n3)[C@H]2SC1 | Enterobacter cloacae | mg/L | 0.78 |
| Nc1nc(/C(=N/O)C(=O)NC2C(=O)N3C(C(=O)O)=C(/C=C\c4csnn4)CSC23)cs1 (stereo not given) | Enterobacter cloacae | mg/L | 0.2 |
| CO/N=C(\C(=O)NC1C(=O)N2C(C(=O)O)=C(/C=C\c3csnn3)CSC12)c1csc(N)n1 (stereo not given) | Enterobacter cloacae | mg/L | 0.39 |

Quick one: MIC of CO/N=C(\C(=O)NC1C(=O)N2C(C(=O)O)=C(/C=C\c3scnc3C)CSC12)c1csc(N)n1 (stereo not given) ? 0.78

Value lookup for MIC; key = Cc1snnc1/C=C\C1=C(C(=O)O)N2C(=O)C(NC(=O)/C(=N\O)c3csc(N)n3)C2SC1 (stereo not given) 0.39

====

measurement description: Evaluated for pharmacokinetic parameter half-life in mouse at the dose 20 mg/kg
Assay type: ADME, organism-based
Parameters: dose 20 mg/kg
measurement setup: in vivo
Property: half-life; scope: individual molecules
Entry rule: numbers only, all in min.

Here are 2 molecules together with their reported answers.
| molecule | half-life, min |
| --- | --- |
| Nc1nc(/C(=N/O)C(=O)NC2C(=O)N3C(C(=O)O)=C(/C=C\c4csnn4)CSC23)cs1 (stereo not drawn) | 42 |
| CC(C)(C)C(=O)OCOC(=O)C1=C(/C=C\c2csnn2)CSC2C(NC(=O)/C(=N\O)c3csc(N)n3)C(=O)N12 (stereo not drawn) | 162 |

What value of half-life has been reported for the following molecule? C=CC1=C(C(=O)O)N2C(=O)[C@@H](NC(=O)/C(=N\O)c3csc(N)n3)[C@H]2SC1 36

====

measurement description: Evaluated for pharmacokinetic parameter half-life in rat at the dose 50 mg/kg
Format: ADME, organism-based
Parameters: dose 50 mg/kg
measurement setup: in vivo
The entries below come with measured half-life values attached.
Response body: numeric value in h, unit text excluded.

The following molecules have reported results that may help.
| molecule | numeric result |
| --- | --- |
| Nc1nc(/C(=N/O)C(=O)NC2C(=O)N3C(C(=O)O)=C(/C=C\c4csnn4)CSC23)cs1 (stereo not drawn) | 4.4 |
| C=CC1=C(C(=O)O)N2C(=O)[C@@H](NC(=O)/C(=N\O)c3csc(N)n3)[C@H]2SC1 [CEFDINIR] | 1.5 |

Turning now to a further molecule:
Item CC(C)(C)C(=O)OCOC(=O)C1=C(/C=C\c2csnn2)CSC2C(NC(=O)/C(=N\O)c3csc(N)n3)C(=O)N12 (stereo not drawn) has what recorded half-life? 1.8

====

Recorded measurements of Tmax, one per entry
measurement description: Evaluated for pharmacokinetic parameter tmax in rat at the dose 50 mg/kg
Assay type: ADME, organism-based
Design: dose 50 mg/kg
measurement setup: in vivo
Please state the figure in h; there is no need to write the unit.

Example compounds with recorded Tmax:
| compound | Tmax (h) |
| --- | --- |
| C=CC1=C(C(=O)O)N2C(=O)[C@@H](NC(=O)/C(=N\O)c3csc(N)n3)[C@H]2SC1 [CEFDINIR] | 2 |
| CC(C)(C)C(=O)OCOC(=O)C1=C(/C=C\c2csnn2)CSC2C(NC(=O)/C(=N\O)c3csc(N)n3)C(=O)N12 (stereo not drawn) | 1 |

For the next question, use this compound.
Look up Tmax for this compound: Nc1nc(/C(=N/O)C(=O)NC2C(=O)N3C(C(=O)O)=C(/C=C\c4csnn4)CSC23)cs1 (stereo not drawn) 2

====

measurement description: Evaluated for pharmacokinetic parameter area under curve in rat at the dose 50 mg/kg (0-8 hr)
Assay type: ADME, organism-based
Design: time < 8 hr, dose 50 mg/kg
measurement setup: in vivo
endpoint: AUC at 8 h (µg·h/mL)
State just the number; it will be interpreted in µg·h/mL.

For the compound C=CC1=C(C(=O)O)N2C(=O)[C@@H](NC(=O)/C(=N\O)c3csc(N)n3)[C@H]2SC1 , what AUC at 8 h is on record? 13.2

====

measurement description: Evaluated for pharmacokinetic parameter area under curve in rabbit at the dose 20 mg/kg (0-4 hr )
Assay type: ADME, organism-based, Oryctolagus cuniculus
Set-up: time < 4 hr, dose 20 mg/kg
measurement setup: in vivo
The following compounds are shown together with reported AUC at 4 h values.
# answer = value followed by unit

| compound | result |
| --- | --- |
| C=CC1=C(C(=O)O)N2C(=O)[C@@H](NC(=O)/C(=N\O)c3csc(N)n3)[C@H]2SC1 | 64200 ng·h/mL |

Now look at this entry.
Name the reported AUC at 4 h value associated with the compound Nc1nc(/C(=N/O)C(=O)NC2C(=O)N3C(C(=O)O)=C(/C=C\c4csnn4)CSC23)cs1 (configuration not stated) 9700 ng·h/mL

====

Tested on: Serratia marcescens
measurement description: Antibacterial activity against Serratia marcescens IID 618 was determined
Type: functional
endpoint: MIC
Give the figure together with its unit, number first.

Consider the worked cases shown below.
| compound | measured on | result |
| --- | --- | --- |
| CO/N=C(\C(=O)NC1C(=O)N2C(C(=O)O)=C(/C=C\c3csnn3)CSC12)c1csc(N)n1 (stereo unspecified) | Serratia marcescens | 0.39 µg/mL |
| Cc1snnc1/C=C\C1=C(C(=O)O)N2C(=O)C(NC(=O)/C(=N\O)c3csc(N)n3)C2SC1 (stereo unspecified) | Serratia marcescens | 0.78 µg/mL |
| Nc1nc(/C(=N/O)C(=O)NC2C(=O)N3C(C(=O)O)=C(/C=C\c4csnn4)CSC23)cs1 (stereo unspecified) | Serratia marcescens | 0.39 µg/mL |
| Cc1nnsc1/C=C\C1=C(C(=O)O)N2C(=O)C(NC(=O)/C(=N\O)c3csc(N)n3)C2SC1 (stereo unspecified) | Serratia marcescens | 0.78 µg/mL |
| CO/N=C(\C(=O)NC1C(=O)N2C(C(=O)O)=C(/C=C\c3scnc3C)CSC12)c1csc(N)n1 (stereo unspecified) | Serratia marcescens | 0.39 µg/mL |

Could you now consider this next compound?
Under Serratia marcescens: MIC value of C=CC1=C(C(=O)O)N2C(=O)[C@@H](NC(=O)/C(=N\O)c3csc(N)n3)[C@H]2SC1 ? 1.56 µg/mL

====

measurement description: Evaluated for pharmacokinetic parameter Cmax in rabbit at the dose 20 mg/kg
Format: ADME, organism-based, Oryctolagus cuniculus
Design: dose 20 mg/kg
measurement setup: in vivo
endpoint: Cmax (ng/mL)
The response must be a number in ng/mL with no trailing unit.

| compound | unit string | Cmax |
| --- | --- | --- |
| C=CC1=C(C(=O)O)N2C(=O)[C@@H](NC(=O)/C(=N\O)c3csc(N)n3)[C@H]2SC1 | ng/mL | 5800 |
| Nc1nc(/C(=N/O)C(=O)NC2C(=O)N3C(C(=O)O)=C(/C=C\c4csnn4)CSC23)cs1 (stereo not drawn) | ng/mL | 2000 |

Here is the next item to consider.
So what does the record say about Cmax for CC(C)(C)C(=O)OCOC(=O)C1=C(/C=C\c2csnn2)CSC2C(NC(=O)/C(=N\O)c3csc(N)n3)C(=O)N12 (stereo not drawn) ? 2400
